Biological target: full-length MALT1 protein (Strep-MALT1(1-824)-His) (Homo sapiens, UniProt Q9UDY8)
Sequence (Q9UDY8 whole entry): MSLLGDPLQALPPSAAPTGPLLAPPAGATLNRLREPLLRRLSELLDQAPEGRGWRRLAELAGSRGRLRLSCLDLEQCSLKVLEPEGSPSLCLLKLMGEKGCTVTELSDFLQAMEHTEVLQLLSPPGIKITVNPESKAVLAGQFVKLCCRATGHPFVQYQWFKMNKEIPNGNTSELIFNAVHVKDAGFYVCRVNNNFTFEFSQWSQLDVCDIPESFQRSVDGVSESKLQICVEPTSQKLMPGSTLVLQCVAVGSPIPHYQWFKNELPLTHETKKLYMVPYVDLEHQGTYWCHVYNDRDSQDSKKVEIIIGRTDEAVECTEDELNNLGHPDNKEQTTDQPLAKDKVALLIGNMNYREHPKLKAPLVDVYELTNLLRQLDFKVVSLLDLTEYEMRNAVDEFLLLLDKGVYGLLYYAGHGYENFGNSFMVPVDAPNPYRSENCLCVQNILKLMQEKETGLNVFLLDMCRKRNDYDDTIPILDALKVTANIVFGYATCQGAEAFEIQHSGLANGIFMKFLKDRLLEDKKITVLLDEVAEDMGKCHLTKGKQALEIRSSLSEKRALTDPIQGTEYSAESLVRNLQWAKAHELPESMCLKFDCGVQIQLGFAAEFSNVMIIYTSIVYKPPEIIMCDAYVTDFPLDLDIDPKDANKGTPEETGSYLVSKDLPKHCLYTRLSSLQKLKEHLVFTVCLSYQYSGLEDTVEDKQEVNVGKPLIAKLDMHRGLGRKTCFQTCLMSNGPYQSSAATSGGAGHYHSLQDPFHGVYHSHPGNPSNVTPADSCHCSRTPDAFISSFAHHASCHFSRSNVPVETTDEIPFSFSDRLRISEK

LINE_NOTATION: Cc1nc(-n2nccn2)c(Cl)cc1NC(=O)c1cnn(-c2cccc3c(=O)[nH]ccc23)c1C(F)(F)F
IC50 [nM]: 15

====

Tested on: IL-6 secretion by OCI-Ly3 ABC-DLBCL cells
Test: IL-6 secretion assay using OCI-Ly3 cells (MSD)
Type: cell-based
Settings: Homo sapiens, 24 h, read-out: IC50, IL6 secretion

LINE_NOTATION: Cc1nc(-n2nccn2)c(Cl)cc1NC(=O)c1cnn(-c2cccc3c(=O)[nH]ccc23)c1C(F)(F)F
TARGET_SYSTEM: IL-6 secretion by OCI-Ly3 ABC-DLBCL cells
UNIT_OF_MEASUREMENT: nM
IC50: 60

====

Test system: HBL1^R58Q
Assay: Growth inhibition assay (CellTiter Glo), HBL1 cells expressing BCL10 R58Q
Format: cell-based
Conditions: Homo sapiens, 96 h, read-out: IC50, growth inhibition, MALT1 inhibitors
Measured IC50, listed per entry for reference.
QUANTITY: IC50 (µM)

LINE_NOTATION: Cc1nc(-n2nccn2)c(Cl)cc1NC(=O)c1cnn(-c2cccc3c(=O)[nH]ccc23)c1C(F)(F)F
QUANTITY: IC50
UNIT_OF_MEASUREMENT: µM
ASSAY_VALUE: 5.77

LINE_NOTATION: CO[C@H](c1c(NC(=O)Nc2cnc(-n3nccn3)c(Cl)c2)cnc2cc(Cl)nn12)[C@@H](C)OC
QUANTITY: IC50
UNIT_OF_MEASUREMENT: µM
ASSAY_VALUE: 3.32

====

Test system: OCI-LY10^R58Q
Assay: Growth inhibition assay (CellTiter Glo), OCI-Ly10 cells expressing BCL10 R58Q
Type: cell-based
Details: Homo sapiens, 96 h, read-out: IC50, growth inhibition, MALT1 inhibitors
QUANTITY: IC50 (nM)

LINE_NOTATION: Cc1nc(-n2nccn2)c(Cl)cc1NC(=O)c1cnn(-c2cccc3c(=O)[nH]ccc23)c1C(F)(F)F
QUANTITY: IC50
UNIT_OF_MEASUREMENT: nM
ASSAY_VALUE: 780
--
LINE_NOTATION: CO[C@H](c1c(NC(=O)Nc2cnc(-n3nccn3)c(Cl)c2)cnc2cc(Cl)nn12)[C@@H](C)OC
QUANTITY: IC50
UNIT_OF_MEASUREMENT: nM
ASSAY_VALUE: 240

====

System: OCI-LY10^E140X
Experiment: Growth inhibition assay (CellTiter Glo), OCI-Ly10 cells expressing BCL10 E140X
Type: cell-based
Conditions: Homo sapiens, 96 h, read-out: IC50, growth inhibition, MALT1 inhibitors
Measured IC50, listed per entry for reference.
QUANTITY: IC50 (nM)

MOLECULE: Cc1nc(-n2nccn2)c(Cl)cc1NC(=O)c1cnn(-c2cccc3c(=O)[nH]ccc23)c1C(F)(F)F [JNJ-67690246]
QUANTITY: IC50
UNIT_OF_MEASUREMENT: nM
ASSAY_VALUE: 270
--
MOLECULE: CO[C@H](c1c(NC(=O)Nc2cnc(-n3nccn3)c(Cl)c2)cnc2cc(Cl)nn12)[C@@H](C)OC [MLT-748]
QUANTITY: IC50
UNIT_OF_MEASUREMENT: nM
ASSAY_VALUE: 90

====

Test system: IL-10 secretion by OCI-Ly3 ABC-DLBCL cells
Test: IL-10 secretion assay using OCI-Ly3 cells (MSD)
Format: cell-based
Details: Homo sapiens, 24 h, read-out: IC50, IL10 secretion

MOLECULE: Cc1nc(-n2nccn2)c(Cl)cc1NC(=O)c1cnn(-c2cccc3c(=O)[nH]ccc23)c1C(F)(F)F [JNJ-67690246]
TARGET_SYSTEM: IL-10 secretion by OCI-Ly3 ABC-DLBCL cells
IC50 / nM: 60

====

Measured IC50, listed per entry for reference.
System: HBL1^E140X
Assay: Growth inhibition assay (CellTiter Glo), HBL1 cells expressing BCL10 E140X
Assay type: cell-based
Details: Homo sapiens, 96 h, read-out: IC50, growth inhibition, MALT1 inhibitors
QUANTITY: IC50

LINE_NOTATION: CO[C@H](c1c(NC(=O)Nc2cnc(-n3nccn3)c(Cl)c2)cnc2cc(Cl)nn12)[C@@H](C)OC
ASSAY_VALUE: 540 nM
//
LINE_NOTATION: Cc1nc(-n2nccn2)c(Cl)cc1NC(=O)c1cnn(-c2cccc3c(=O)[nH]ccc23)c1C(F)(F)F
ASSAY_VALUE: 150 nM

====

Tested on: OCI-LY10^R58Q
Test: Growth inhibition assay (CellTiter Glo), OCI-Ly10 cells expressing BCL10 R58Q
Assay type: cell-based
Conditions: Homo sapiens, 96 h, read-out: IC50, growth inhibition, BTK inhibitors
Measured IC50, listed per entry for reference.

COMPOUND: CC#CC(=O)N1CCC[C@H]1c1nc(-c2ccc(C(=O)Nc3ccccn3)cc2)c2c(N)nccn12 [Acalabrutinib]
TARGET_SYSTEM: OCI-LY10^R58Q
IC50: 7.69 nM
--
COMPOUND: C=CC(=O)N1CCC([C@@H]2CCNc3c(C(N)=O)c(-c4ccc(Oc5ccccc5)cc4)nn32)CC1 [Zanubrutinib]
TARGET_SYSTEM: OCI-LY10^R58Q
IC50: 1.81 nM
--
COMPOUND: C=CC(=O)N1CCC[C@@H](n2nc(-c3ccc(Oc4ccccc4)cc3)c3c(N)ncnc32)C1 [Ibrutinib]
TARGET_SYSTEM: OCI-LY10^R58Q
IC50: 2.2 nM

Entry source: patent US20240026461A1
